# TEST TARGET: FQSE (SEQ ID NO:10)-specific binding sites in the rat cortex
# TEST: Radioligand analysis with [3H] FQSE on rat cortex membranes
# EXPERIMENTAL PARAMETERS: RT, 50 min; read-out: IC50 after different incubation times: 50 min
# Description: After decapitation, the tissues were immediately frozen in liquid nitrogen and stored in a low-temperature refrigerator at −80° C. On the day of the experiment, brain tissue (cortex, about 300 mg) was homogenized in a Teflon-glass Potter homogenizer 1:25 W:V in the buffer (50 mM Tris-HCl, pH 7.4). The homogenate was centrifuged at 40,000 g for 20 min. The obtained precipitate was homogenized in a buffer (50 mM Tris-HCl; pH=7.4) and centrifuged again at 40,000 g for 20 min. […]
ENDPOINT LABEL: IC50 (µM)
Record the value in µM, omitting the unit from your answer.

input: Determine from records and report IC50 for "CC(=O)[C@H]1CC[C@H]2[C@@H]3CC=C4C[C@@H](O)CC[C@]4(C)[C@H]3CC[C@]12C"
output: 36
